Biological target: UniProt P78536
Assay: TACE inhibition (fluorescent peptidyl substrate)
Type: biochemical
Conditions: read-out: TACE IC50
property: pIC50
Interpret pIC50 as the negative base-10 log of the concentration measured in mol/L.

Inquiry: For the compound shown here, CC#CCOc1ccc(S(=O)(=O)N(C)c2c(C(=O)NO)cnc3c(Br)cccc23)cc1 , give the reported pIC50.
Reply text: 7.09

###

Assignment: determine reported pIC50 for the given compounds.
Target: TNF-α converting enzyme (TACE) (Homo sapiens, UniProt P78536)
Sequence (P78536 215-824, species assumed): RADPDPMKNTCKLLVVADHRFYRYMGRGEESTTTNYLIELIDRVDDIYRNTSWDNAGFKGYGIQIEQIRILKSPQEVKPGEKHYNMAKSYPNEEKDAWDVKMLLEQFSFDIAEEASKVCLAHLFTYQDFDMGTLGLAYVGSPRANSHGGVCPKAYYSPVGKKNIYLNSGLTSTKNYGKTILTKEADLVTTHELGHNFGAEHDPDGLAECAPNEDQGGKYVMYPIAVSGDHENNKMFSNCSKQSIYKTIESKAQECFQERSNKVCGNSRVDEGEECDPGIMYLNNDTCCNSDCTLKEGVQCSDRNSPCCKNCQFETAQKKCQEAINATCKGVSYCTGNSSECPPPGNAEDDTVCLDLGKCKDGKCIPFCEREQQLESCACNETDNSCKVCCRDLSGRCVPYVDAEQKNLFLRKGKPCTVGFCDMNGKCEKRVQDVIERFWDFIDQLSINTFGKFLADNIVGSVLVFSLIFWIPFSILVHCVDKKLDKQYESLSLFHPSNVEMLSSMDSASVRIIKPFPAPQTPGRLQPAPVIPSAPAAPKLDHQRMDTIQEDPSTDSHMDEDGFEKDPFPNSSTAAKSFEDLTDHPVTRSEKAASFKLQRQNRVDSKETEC
Assay: TACE inhibition (fluorescent peptidyl substrate)
Format: biochemical
Interpret pIC50 as the negative base-10 log of the concentration measured in mol/L.

Inquiry: I'm curious: which pIC50 was measured for CC#CCOc1ccc(S(=O)(=O)N(C)c2c(C(=O)NO)cnc3onc(C)c23)cc1 tested on TNF-α converting enzyme (TACE) (Homo sapiens, UniProt P78536)?
Reply text: 8.23

Inquiry: I'm curious: which pIC50 was measured for CC#CCOc1ccc(S(=O)(=O)N(C)c2c(C(=O)NO)cnc3c2c(C)nn3C)cc1 tested on TNF-α converting enzyme (TACE) (Homo sapiens, UniProt P78536)?
Reply text: 7.52

Inquiry: I'm curious: which pIC50 was measured for CC#CCOc1ccc(S(=O)(=O)N(C)c2c(C(=O)NO)cnc3c(OC)cccc23)cc1 tested on TNF-α converting enzyme (TACE) (Homo sapiens, UniProt P78536)?
Reply text: 7.77

Inquiry: I'm curious: which pIC50 was measured for CC#CCOc1ccc(S(=O)(=O)N(C)c2c(C(=O)NO)cnc3snc(C)c23)cc1 tested on TNF-α converting enzyme (TACE) (Homo sapiens, UniProt P78536)?
Reply text: 7.85

###

Assignment: determine reported IC50 for the given compounds.
Biological target: MMP-13 (Homo sapiens, UniProt P45452)
Test: MMP-13 inhibition (thiopeptide or fluorescent peptide substrate)
Type: biochemical
Please reply with the bare figure in nM and do not write the unit itself.

Inquiry: For the compound shown here, CC#CCOc1ccc(S(=O)(=O)N(C)c2c(C(=O)NO)cnc3snc(C)c23)cc1 , give the reported IC50.
Reply text: 34

Inquiry: For the compound shown here, CC#CCOc1ccc(S(=O)(=O)N(C)c2c(C(=O)NO)cnc3onc(C)c23)cc1 , give the reported IC50.
Reply text: 150

###

Record type: IC50 measurement. Applies to: MMP-9 (Homo sapiens, UniProt P14780)
Please reply with the bare figure in nM and do not write the unit itself.

Inquiry: For the compound shown here, CC#CCOc1ccc(S(=O)(=O)N(C)c2c(C(=O)NO)cnc3c(OC)cccc23)cc1 , give the reported IC50.
Reply text: 33

Inquiry: For the compound shown here, CC#CCOc1ccc(S(=O)(=O)N(C)c2c(C(=O)NO)cnc3c2c(C)nn3C)cc1 , give the reported IC50.
Reply text: 116

Inquiry: For the compound shown here, CC#CCOc1ccc(S(=O)(=O)N(C)c2c(C(=O)NO)cnc3snc(C)c23)cc1 , give the reported IC50.
Reply text: 95

Inquiry: For the compound shown here, CC#CCOc1ccc(S(=O)(=O)N(C)c2c(C(=O)NO)cnc3onc(C)c23)cc1 , give the reported IC50.
Reply text: 244

Where do these numbers come from? They come from patent EP1157024B1.
